System: Plasmodium berghei
Experiment: Luciferase/luciferin-expressing antifolate-resistant parasites were used to infect a culture of HepG2 cells that were pre-incubated with compounds. Infected hepatocytes emit light due to the luciferase reaction. Assay results are presented as the percent inhibition of light emission compared to control. […]
Type: functional
Conditions: sporozoite, PBLUC_HILL_SLOPE 2.38, PBLUC_R_SQUARED 0.395, read-out: LUCIFERASE INFECTION ASSAY - IC50

smi	IC50 (µM)
Cc1oc2c(c1C(=O)N1CCN(c3ccc(F)cc3)CC1)C(=O)c1ccccc1C2=O	4.13

====

Test system: Plasmodium berghei
Experiment: Luciferase/luciferin-expressing antifolate-resistant parasites were used to infect a culture of HepG2 cells that were pre-incubated with compounds. Infected hepatocytes emit light due to the luciferase reaction. Assay results are presented as the percent inhibition of light emission compared to control. […]
Type: functional
Conditions: sporozoite, HEPG2TOX_HILL_SLOPE 7.3, HEPG2TOX_R_SQUARED 0.234, PBLUC_HILL_SLOPE 3.59, PBLUC_R_SQUARED 0.507, read-out: LUCIFERASE INFECTION ASSAY - IC50

smi	IC50
O=C(CNc1cccc(C(F)(F)F)c1)N/N=C/c1c2ccccc2c(Cl)c2ccccc12	6.19 µM
